This collection of values is drawn from paper PMC7038234.

Test: Cytotoxicity / cell viability on Vero cells
Details: African green monkey
Entries and their measured CC50 follow.

Example cases with answers are listed next.
molecule	CC50
COc1cc2c(c(OC)c1OC)-c1c(cc(OC)c(OC)c1OC)C[C@H](C)[C@H](C)C2 [schizandrin A]	100 µM
C[C@H]1O[C@@H](O[C@H]2[C@@H](O)C[C@H](O[C@H]3[C@@H](O)C[C@H](O[C@H]4CC[C@@]5(C)[C@H](CC[C@@H]6[C@@H]5C[C@@H](O)[C@]5(C)[C@@H](C7=CC(=O)OC7)CC[C@]65O)C4)O[C@@H]3C)O[C@@H]2C)C[C@H](O)[C@@H]1O [digoxin]	> 100 µM
Oc1cc(O)c2c(c1)OC(c1ccc(O)c(O)c1)C(OC1(c3ccc(O)c(O)c3)Oc3cc(O)cc(O)c3C(O)C1O)C2 (stereo not shown) [procyanidin]	> 100 µM

Please find the next molecule below.
Problem: Quick one: CC50 of Cc1cc(O)c2c(c1)C(=O)c1cc(O)cc(O)c1C2=O [emodin] ?
Result: > 100 µM
